Values compiled from patent US20070099854A1.

A collection of compounds and their measured melting point

CCOC(=O)/C=C(C)/C=C/C1=Cc2ccccc2OC1; 110 to 112 °C
CC(=C/C(=O)O)/C=C/C1=Cc2ccccc2OC1(C)C; 176 °C

## Input melting point lookup needed for CC(/C=C/C1=C(c2ccccc2)c2ccccc2OC1)=C\C(=O)O , thanks.
## Output 258 to 260 °C

## Input melting point lookup needed for CC(/C=C/C1=Cc2ccccc2OC1c1ccccc1)=C\C(=O)O (centres unmarked) [Example 14b] , thanks.
## Output 200 to 202 °C

## Input melting point lookup needed for CC1=C(/C=C/C(C)=C/C(=O)O)COc2ccccc21 [Example 11b] , thanks.
## Output 216 to 218 °C

## Input melting point lookup needed for CC(=C/C(=O)O)/C=C/C1=Cc2ccccc2OC1 [Example 12b] , thanks.
## Output 224 to 226 °C

## Input melting point lookup needed for CC(/C=C/C1=Cc2ccccc2OC1)=C\C(=O)O , thanks.
## Output 226 to 228 °C

## Input melting point lookup needed for CC(/C=C/C1=Cc2ccccc2OC1(C)C)=C\C(=O)O , thanks.
## Output 164 to 166 °C
